biological target: GluA1o-γ8 (GRIA1o-CACNG8 fusion construct; TARP γ8 dependent AMPA receptor) (Homo sapiens (Human), UniProt P42261+Q8WXS5); assay: Calcium flux assay (FLIPR), inhibition of glutamate response of GluA1o-γ8 channel; type: cell-based; settings: HEK293 cells stably expressing GRIA1o-CACNG8 fusion; 15 μM glutamate; pIC50 = negative log of IC50 in molar; read-out: GluR1-γ8 (pIC50) (converted)
Sequence (P42261 other isoform, or with tags, fused parts or gaps): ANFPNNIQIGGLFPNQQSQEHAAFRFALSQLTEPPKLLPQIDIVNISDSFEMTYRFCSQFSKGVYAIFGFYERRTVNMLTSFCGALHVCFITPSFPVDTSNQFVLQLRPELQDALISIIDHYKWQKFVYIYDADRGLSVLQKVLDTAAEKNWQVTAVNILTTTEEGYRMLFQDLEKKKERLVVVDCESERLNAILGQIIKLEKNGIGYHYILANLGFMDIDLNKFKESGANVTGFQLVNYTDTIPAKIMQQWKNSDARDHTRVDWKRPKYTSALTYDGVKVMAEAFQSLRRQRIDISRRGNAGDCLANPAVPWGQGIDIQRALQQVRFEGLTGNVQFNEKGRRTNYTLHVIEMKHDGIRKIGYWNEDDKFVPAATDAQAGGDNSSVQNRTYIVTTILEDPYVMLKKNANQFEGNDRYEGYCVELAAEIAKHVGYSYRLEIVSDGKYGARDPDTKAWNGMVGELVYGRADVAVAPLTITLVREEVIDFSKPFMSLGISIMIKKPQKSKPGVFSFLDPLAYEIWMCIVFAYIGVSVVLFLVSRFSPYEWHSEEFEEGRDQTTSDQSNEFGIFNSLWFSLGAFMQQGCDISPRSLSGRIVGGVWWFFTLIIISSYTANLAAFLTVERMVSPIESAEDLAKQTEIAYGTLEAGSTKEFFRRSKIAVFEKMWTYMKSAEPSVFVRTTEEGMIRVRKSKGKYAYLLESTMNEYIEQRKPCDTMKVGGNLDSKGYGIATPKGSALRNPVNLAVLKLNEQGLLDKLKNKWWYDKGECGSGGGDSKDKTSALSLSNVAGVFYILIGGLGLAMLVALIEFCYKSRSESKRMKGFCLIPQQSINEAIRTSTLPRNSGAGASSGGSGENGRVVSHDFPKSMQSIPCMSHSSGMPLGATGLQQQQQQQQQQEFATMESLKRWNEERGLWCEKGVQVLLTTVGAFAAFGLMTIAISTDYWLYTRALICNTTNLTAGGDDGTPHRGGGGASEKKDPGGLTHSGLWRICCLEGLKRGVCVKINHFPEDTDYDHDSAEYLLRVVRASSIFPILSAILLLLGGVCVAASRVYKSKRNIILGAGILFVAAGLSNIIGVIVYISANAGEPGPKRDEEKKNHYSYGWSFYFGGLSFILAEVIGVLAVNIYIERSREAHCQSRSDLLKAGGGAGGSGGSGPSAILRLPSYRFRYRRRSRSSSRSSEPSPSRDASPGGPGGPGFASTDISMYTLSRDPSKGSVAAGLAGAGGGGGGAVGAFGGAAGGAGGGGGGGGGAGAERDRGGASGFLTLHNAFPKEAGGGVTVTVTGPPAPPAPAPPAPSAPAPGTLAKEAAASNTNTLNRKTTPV
quantity.name: IC50 (nM)

Worked examples, 3 compounds total:
COC1CN(c2nccc3c(-c4ccc5c(c4)CC(=O)N5)c(C4CCCC4)nn23)C1: 316
COC1CCN(c2nccc3c(-c4ccc5[nH]c(=O)sc5c4)c(C(C)C)nn23)CC1: 2.51
O=C1Cc2cc(-c3c(-c4ccccc4)nc4c(N5CC6(CC6)C5)nccn34)ccc2N1: 0.631

I. Fc1ccc(-c2nc3c(N4CCOCC4)nccn3c2-c2ccc3[nH]ccc3c2)cc1
II. c1ccc(Cc2nc3c(N4CCOCC4)nccn3c2-c2ccc3[nH]ncc3c2)cc1
Between I and II , which one shows the smaller IC50 number? Respond with the label that goes with your answer.
II

====

target: GluA1o-γ8 (GRIA1o-CACNG8 fusion construct; TARP γ8 dependent AMPA receptor) (Homo sapiens (Human), UniProt P42261+Q8WXS5); test: Calcium flux assay (FLIPR), inhibition of glutamate response of GluA1o-γ8 channel; assay type: cell-based; conditions: HEK293 cells stably expressing GRIA1o-CACNG8 fusion; 15 μM glutamate; pIC50 = negative log of IC50 in molar; read-out: GluR1-γ8 (pIC50) (converted)
quantity.name: IC50 (nM)

Worked examples, 5 molecules total:
N#Cc1ccc(-c2nc3c(N4CCNC(=O)C4)nccn3c2-c2ccc3[nH]ncc3c2)cc1: 2
O=C1Cc2cc(-c3c(-c4ccccc4)nn4c(N5CCOCC5)nccc34)ccc2N1: 1
CC1(C)COCCN1c1nccn2c(-c3ccc4c(c3)CC(=O)N4)c(-c3ccc(F)cc3)nc12: 31.6
O=C1Cc2cc(-c3c(-c4ccc(F)cc4)nc4c(N5CCC(=NO)CC5)nccn34)ccc2N1: 79.4
Oc1ccc(-c2c(-c3ccc(F)cc3)nc3c(N4CCC(F)(F)CC4)nccn23)cc1: 158

1. O=c1[nH]c2ccc(-c3c(-c4ccc(F)cc4)nc4c(O)nccn34)cc2[nH]1
2. O=c1[nH]c2ccc(-c3c(Cc4ccccc4)nc4c(N5CCOCC5)nccn34)cc2[nH]1
3. O=C(c1ccccc1)c1nc2c(N3CCOCC3)nccn2c1-c1ccc2c(c1)CS(=O)(=O)N2
4. O=c1[nH]c2ccc(-c3c(-c4ccccc4)nn4c(N5CCOCC5)nccc34)cc2s1
Sequence the entries by IC50, beginning with the highest number. State the ranking by listing the labels in the requested order.
1, 3, 2, 4
(1: 1580 nM, 3: 7.94 nM, 2: 1.58 nM, 4: 0.0501 nM)

====

target: GluA1o-γ8 (GRIA1o-CACNG8 fusion construct; TARP γ8 dependent AMPA receptor) (Homo sapiens (Human), UniProt P42261+Q8WXS5); assay: Calcium flux assay (FLIPR), inhibition of glutamate response of GluA1o-γ8 channel; format: cell-based; settings: HEK293 cells stably expressing GRIA1o-CACNG8 fusion; 15 μM glutamate; pIC50 = negative log of IC50 in molar; read-out: GluR1-γ8 (pIC50) (converted)
quantity.name: IC50 (nM)

Worked examples, 10 molecules total:
Cc1cnc(N2CCOCC2)n2nc(-c3ccccc3)c(-c3ccc4c(c3)CC(=O)N4)c12: 0.126
CC(=O)N1CCN(c2nccn3c(-c4ccc(O)cc4)c(-c4ccc(F)cc4)nc23)CC1: 6.31
O=C1Cc2cc(-c3c(Cc4ccccc4)nc4c(N5CCOCC5)nccn34)ccc2N1: 1
O=C1Cc2cc(-c3c(-c4ccc(F)cc4)nc4cnccn34)ccc2N1: 100
CC(C)(C)OC(=O)N1CCN(c2nccn3c(-c4ccc5c(c4)CC(=O)N5)c(Cc4ccccc4)nc23)CC1: 0.316
CN(C)c1nccn2c(-c3ccc4c(c3)CC(=O)N4)c(-c3ccc(F)cc3)nc12: 0.794
O=c1[nH]c2ccc(-c3c(-c4ccc(F)cc4)nc4c(N5CC6(COC6)C5)nccn34)cc2[nH]1: 5.01
Cc1cc2c(-c3ccc4c(c3)CC(=O)N4)c(-c3ccccc3)nn2c(N2CCOCC2)n1: 3.16
CC(C)c1nn2cnc(C(F)(F)F)cc2c1-c1ccc2c(c1)CC(=O)N2: 1580
CC(C)(C)OC(=O)N1CCN(c2ncc(Br)n3c(-c4ccc5c(c4)CC(=O)N5)c(Cc4ccccc4)nc23)CC1: 0.794

1. O=C1Cc2cc(-c3c(-c4ccccc4)nn4c(N5CC(F)C5)nccc34)ccc2N1
2. CS(=O)(=O)c1nccn2c(-c3ccc4c(c3)CC(=O)N4)c(-c3ccc(F)cc3)nc12
3. O=C1Cc2cc(-c3c(-c4ccc(F)cc4)nc4c(N5CC6(COC6)C5)nccn34)ccc2N1
4. Nc1nc2cc(-c3c(-c4ccc(F)cc4)nc4c(N5CCOCC5)nccn34)ccc2[nH]1
5. O=C1CN(c2nccn3c(-c4ccc5c(c4)CC(=O)N5)c(C(=O)Nc4ccccc4)nc23)CCN1
Sequence the entries by IC50, beginning with the highest number. State the ranking by listing the labels in the requested order.
4, 2, 5, 3, 1
(4: 631 nM, 2: 398 nM, 5: 20 nM, 3: 5.01 nM, 1: 3.16 nM)

====

biological target: GluA1o-γ8 (GRIA1o-CACNG8 fusion construct; TARP γ8 dependent AMPA receptor) (Homo sapiens (Human), UniProt P42261+Q8WXS5); experiment: Calcium flux assay (FLIPR), inhibition of glutamate response of GluA1o-γ8 channel; format: cell-based; conditions: HEK293 cells stably expressing GRIA1o-CACNG8 fusion; 15 μM glutamate; pIC50 = negative log of IC50 in molar; read-out: GluR1-γ8 (pIC50) (converted)
quantity.name: IC50 (nM)

Worked examples, 5 molecules total:
O=C1Cc2cc(-c3c(C4CCCC4)nc4c(N5CCOCC5)nccn34)ccc2N1: 15.8
O=C(c1ccccc1)c1nc2c(N3CCOCC3)nccn2c1-c1ccc2[nH]c(=O)oc2c1: 1.26
Oc1ccc(-c2c(Cc3ccccc3)nc3c(N4CCOCC4)nccn23)cc1: 25.1
COc1nccn2c(-c3ccc4c(c3)CC(=O)N4)c(-c3ccc(F)cc3)nc12: 79.4
O=C1Cc2cc(-c3c(-c4ccccc4)nn4c(N5CC[C@@H](O)[C@H](F)C5)nccc34)ccc2N1 (relative stereo): 0.316

I. O=C1Cc2cc(-c3c(-c4ccncc4)nc4c(N5CCC(O)CC5)nccn34)ccc2N1
II. CC(C)c1nn2cnc(C(F)(F)F)cc2c1-c1ccc2[nH]c(=O)sc2c1
Exercise: compare I and II ; which one has the greater IC50? Respond with the label that goes with your answer.
II

====

Molecular target: GluA1o-γ8 (GRIA1o-CACNG8 fusion construct; TARP γ8 dependent AMPA receptor) (Homo sapiens (Human), UniProt P42261+Q8WXS5)
Assay: Calcium flux assay (FLIPR), inhibition of glutamate response of GluA1o-γ8 channel
Assay type: cell-based
Details: HEK293 cells stably expressing GRIA1o-CACNG8 fusion; 15 μM glutamate; pIC50 = negative log of IC50 in molar; read-out: GluR1-γ8 (pIC50) (converted)
Protocol: This assay was used to test compounds for their ability to inhibit TARP γ8 dependent AMPA receptor activity. The AMPA receptor is a non-selective cation channel activated by glutamate. […] An in vitro assay was used to determine the potency of test compounds as inhibitors of the glutamate response of the channel formed by GluA1o-γ8. […] Calcium flux following the addition of 15 μM glutamate was monitored using a Molecular Devices FLIPR Tetra. […]
quantity.name: IC50 (nM)

Worked examples, 3 molecules total:
CC(=O)N1CCN(c2nccn3c(-c4ccc(O)cc4)c(Cc4ccccc4)nc23)CC1 [Example 23]: 25.1
O=c1[nH]c2ccc(-c3c(C4CCC4)nn4cnc(C(F)(F)F)cc34)cc2s1 [Example 229]: 15.8
N#Cc1ccc(-c2nc3c(N4CCOCC4)nccn3c2-c2ccc(O)cc2)cc1 [Example 95]: 31.6

1. O=C1Cc2cc(-c3c(-c4ccccc4)nn4c(N5CCC(F)CC5)nccc34)ccc2N1 [Example 188]
2. O=C(NC1CCCCC1)c1nc2c(N3CCOCC3)nccn2c1-c1ccc2[nH]c(=O)[nH]c2c1 [Example 214]
Between 1 and 2 , which one shows the smaller IC50 number? Respond with the label that goes with your answer.
1
(1: 0.501 nM, 2: 31.6 nM)

1. O=C1Cc2cc(-c3c(-c4ccc(F)cc4)nn4c(N5CC(O)C5)nccc34)ccc2N1 [Example 179]
2. O=c1[nH]c2ccc(-c3c(-c4ccc(F)cc4)nc4c(N5CCOCC5)nccn34)cc2s1 [Example 118]
Exercise: compare 1 and 2 ; which one has the greater IC50? Respond with the label that goes with your answer.
1
(1: 6.31 nM, 2: 0.316 nM)
